Target: 肺炎支原体天然抗原(购自Microbix) (Mycoplasma pneumoniae)
Assay: indirect ELISA, antigen coated at 2 ug/ml, antibody 0 ng/ml (blank)
Field: OD450 (参考630nm). Provide a value for each of the binders that follow.
Lab book: enter the figure in OD, no units written.

Lookup: Supply OD450 (参考630nm) value. Item: Anti-MP-22A9mut4 (antibody, mouse IgG1, kappa, V domains shown) VH: QAYLQQSGAELVRSGASVKMSCKASGYTFTTYNMHWVKQTPGQGLEWIGYVHPGYGITYYSQKFKGKATLTADTSSSTAYMLLSSITSEDSAVYFCTRSYYGYSYWFFDVWGAGTTVTVSS VL: NIVMTQSPKSVSMSVGERVTLNCKASENVGSYVAWYQQKPDRSPKLLIHGASNRYTGVPDRFTGSGSTTDFTLTISSVQAEDLADYHCGQTYNYPYTFGGGTKLEIKR
Found: 0.012

Lookup: Provide one value: measured OD450 (参考630nm) of Anti-MP-22A9mut6 (antibody, mouse IgG1, kappa, V domains shown) VH: QAYLQQSGAELVRSGASVKMSCKASGYTFTTYNMHWVKQTPGQGLEWIGYVHPGYGITYYSQKFKGKATLTADTSSSTAYMLLSSITSEDSAVYFCTRSYYGYSYWFFDVWGAGTTVTVSS VL: NIVMTQSPKSVSMSVGERVTLNCKASENVGSYVAWYQQKPDRSPKLLIHGASNRYTGVPDRFTGSGSTTDFTLTLSSVQAEDLADYHCGQTYNYPYTFGGGTKLEIKR
Found: 0.011

Lookup: Tell me measured OD450 (参考630nm) for Anti-MP-22A9mut3 (antibody, mouse IgG1, kappa, V domains shown) VH: QAYLQQSGAELVRSGASVKMSCKASGYTFTTYNMHWVKQTPGQGLEWIGYVHPGYGITYYSQKFKGKATITADTSSSTAYMLLSSLTSEDSAVYFCTRSYYGYSYWFFDVWGAGTTVTVSS VL: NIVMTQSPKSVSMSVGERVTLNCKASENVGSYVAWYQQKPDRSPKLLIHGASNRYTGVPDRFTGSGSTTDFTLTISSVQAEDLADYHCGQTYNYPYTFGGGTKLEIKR please.
Found: 0.016
